// data source = ChEMBL document CHEMBL5385901

- testName: Cytotoxicity against human CM-AS16 cells assessed as cell growth inhibition incubated for 72 hrs by CCK8 assay
- Type: functional, cell-based
- condition: CM-AS16, 72 h

{"compound": "CCCNCC(O)COc1ccccc1C(=O)CCc1ccccc1 (stereo unspecified)", "IC50 / µM": 13.7}

----------
Recorded pIC50 for the following molecules
- testName: Antiproliferative activity against human CM2005.1 cells assessed as cell growth inhibition incubated for 72 hrs by CCK8 assay
- Type: functional, cell-based
- condition: CM2005.1, 72 h
pIC50: −log10 of the molar value.

{"molecule": "O=C(CCCc1ccccc1)c1c(OCCCNC2CC2)ccc2ccccc12", "pIC50": 4.98}
{"molecule": "CCC(C)(C)NCCCOc1ccc2ccccc2c1C(=O)CCCc1ccccc1", "pIC50": 5.39}
{"molecule": "O=C(CCCc1ccccc1)c1c(OCCCn2cccc2)ccc2ccccc12", "pIC50": 4.00}
{"molecule": "CCCCCNCCCOc1ccccc1C(=O)CCCc1ccccc1", "pIC50": 5.42}
{"molecule": "CCCNCC(O)COc1ccccc1C(=O)CCc1ccccc1 (stereo unspecified)", "pIC50": 4.32}
{"molecule": "CCCOCC(=O)COc1ccccc1C(=O)CCc1ccccc1", "pIC50": 4.39}
{"molecule": "CCCOCC(O)COc1ccccc1C(=O)CCc1ccccc1 (stereo unspecified)", "pIC50": 4.28}
{"molecule": "CC(C)(C)CNCCCOc1ccc2ccccc2c1C(=O)CCCc1ccccc1", "pIC50": 5.29}
{"molecule": "O=C(CCCc1ccccc1)c1c(OCCCN2CCOCC2)ccc2ccccc12", "pIC50": 6.00}
{"molecule": "CCCNCCCOc1ccccc1C(=O)CCCc1ccccc1", "pIC50": 5.59}
{"molecule": "O=C(CC(F)(F)F)NCCCOc1ccc2ccccc2c1C(=O)CCCc1ccccc1", "pIC50": 4.71}

----------
- testName: Inhibition of homologous recombination in human CRMM-1 cells at 10 uM incubated for 12 hrs by real-time PCR analysis relative to control
- Assay type: functional
So basically: inhibition at 10 µM at 50% or higher? That is met. Lower than 50%? That is not met.

{"molecule": "C=CC(=O)NCCCOc1ccc2ccccc2c1C(=O)CCCc1ccccc1", "cat": "met"}
{"molecule": "O=C(CCCc1ccccc1)c1c(OCCCNC2CC2)ccc2ccccc12", "cat": "not met"}
{"molecule": "O=C(CCCc1ccccc1)c1c(OCCCN2CCCC2)ccc2ccccc12", "cat": "met"}
{"molecule": "CCCNCCCOc1ccc2ccccc2c1C(=O)CCCc1ccccc1", "cat": "met"}
{"molecule": "CC(C)(C)CNCCCOc1ccc2ccccc2c1C(=O)CCCc1ccccc1", "cat": "met"}
{"molecule": "CCCNCCCOc1cc2c(cc1C(=O)CCCc1ccccc1)OCO2", "cat": "not met"}
{"molecule": "C#CCNCCCOc1ccc2ccccc2c1C(=O)CCCc1ccccc1", "cat": "met"}
{"molecule": "CCCNCC(O)COc1ccccc1C(=O)CCCc1ccccc1 (stereo unspecified)", "cat": "met"}
{"molecule": "CCCNCCCOc1cccc2cccc(C(=O)CCCc3ccccc3)c12", "cat": "met"}
{"molecule": "CCCCCCNCCCOc1ccccc1C(=O)CCCc1ccccc1", "cat": "met"}
{"molecule": "O=C(CC(F)(F)F)NCCCOc1ccc2ccccc2c1C(=O)CCCc1ccccc1", "cat": "not met"}
